Target Or System: PKM2 (Homo sapiens)
Experiment Notes: PKM2 activation biochemical assay (AC50 / max. response vs fructose 1,6-bisphosphate)
Condition Details: % maximum response in a biochemical assay as compared with Fructose 1,6-bisphosphate
Tick 1 if Max. Resp. (%) is 70% or greater. Tick 0 if Max. Resp. (%) is less than 70%.

State whether the measured Max. Resp. (%) reaches 70%, counting equality as reaching it, for O=C(c1cc(C(F)(F)F)n[nH]1)N(CCN1CCCC(O)C1)Cc1ccccc1Cl (centres unmarked)
1

Is the recorded value of Max. Resp. (%) equal to or greater than 70% for this compound? O=C(c1cc(C(F)(F)F)n[nH]1)N(CCC1CCS(=O)(=O)C1)Cc1cc(F)ccc1F (centres unmarked)
1

Given the entry `CN1CCC(CN(Cc2ccccc2F)C(=O)c2cc(C(F)(F)F)n[nH]2)CC1` , answer whether its Max. Resp. (%) meets or surpasses 70%.
0

Assess whether reported Max. Resp. (%) for `O=C(c1cc(C(F)(F)F)n[nH]1)N(Cc1cccc2c1CCN2)CC1CCC1` sits at 70% or higher.
1

Max. Resp. (%) >= 70% for `O=C(c1cc(C(F)(F)F)n[nH]1)N(CCC1CCS(=O)(=O)CC1)Cc1c(F)cccc1F` ?
1

Check the entry `O=C(c1cc(Br)n[nH]1)N(CCC1CCSCC1)Cc1ccccc1F` : does Max. Resp. (%) equal or exceed 70%?
1

###

Field: log10 AC50. Provide a value for each of the compounds that follow.
Target Or System: UniProt:P14618
Experiment Notes: PKM2 activation biochemical assay (AC50 / max. response vs fructose 1,6-bisphosphate)
Condition Details: biochemical assay; read-out: PKM2 AC50
Hi team, quick reminder: these entries are log10 of AC50 (nM).

Quick one: log10 AC50 of Nc1ccc(CN(CC2CCC2)C(=O)c2cc(C(F)(F)F)n[nH]2)c(Cl)c1 [Compound 134] ?
3.03

Please report the recorded log10 AC50 for CCN1CCC(N(Cc2ccccc2F)C(=O)c2cc(C(F)(F)F)n[nH]2)C1 (stereo not shown) [Compound 152] .
4.13

Which log10 AC50 reading was recorded for the compound CCN1CCC(CCN(Cc2c(Cl)cccc2Cl)C(=O)c2cc(C(F)(F)F)n[nH]2)CC1 [Compound 105] ?
3.51

Need log10 AC50 of O=C(CCSC(=S)NCc1cccnc1)c1c[nH]c2ncccc12 [PMA32] , thanks.
3.00

Look up log10 AC50: O=C(c1cc(C(F)(F)F)n[nH]1)N(CCN1CCS(=O)(=O)CC1)Cc1c(Cl)cccc1Cl [Compound 110]
3.21

log10 AC50 lookup needed for O=C(c1cc(C(F)(F)F)n[nH]1)N(Cc1ccc(O)cc1F)C1CCCCC1 [Compound 139] , thanks.
2.18

For COc1ccc(N)cc1CN(CCN1CCCCCC1)C(=O)c1cc(C(F)(F)F)n[nH]1 [Compound 215] , what is its reported log10 AC50?
3.08

Data request, read-out log10 AC50, for O=C(c1cc(C(F)(F)F)n[nH]1)N(Cc1ccccc1Cl)CC1CCS(=O)(=O)CC1 [Compound 72]
4.29

What does the data say about its log10 AC50? Entry: CC(C)(C)CN(Cc1cccc2[nH]ccc12)C(=O)c1cc(C(F)(F)F)n[nH]1 [Compound 13]
4.69

Look up log10 AC50: O=C(c1cc(C(F)(F)F)n[nH]1)N(CCN1CCS(=O)(=O)CC1)Cc1ccccc1Cl [Compound 107]
2.94

Give the measured log10 AC50 of COc1ccc2nc(Cn3cnc4ccccc43)cc(=O)n2c1 [PP12] .
2.67

Requested read-out: log10 AC50. Entry: O=C(c1cc(C(F)(F)F)n[nH]1)N(CCC1CC1)Cc1ccccc1F [Compound 149]
3.30

Recorded log10 AC50 of CC(C)O[C@H]1CC[C@H](N(Cc2ccccc2Cl)C(=O)c2cc(C(F)(F)F)n[nH]2)CC1 [Compound 53] , please.
3.36

# query: log10 AC50 of entry CCCN(CC)CCN(Cc1c(N)cccc1F)C(=O)c1cc(C(F)(F)F)n[nH]1 [Compound 240]
1.83

Fill blank: measured log10 AC50 of the compound CS(=O)(=O)N1CCC(CCN(Cc2ccccc2F)C(=O)c2cc(C(F)(F)F)n[nH]2)CC1 [Compound 99] is ____.
2.04

Which measured log10 AC50 value corresponds to O=C(c1cc(C(F)(F)F)n[nH]1)N(CCC1CCS(=O)(=O)C1)Cc1ccc(O)cc1F (stereo not shown) [Compound 76] ?
1.73

Entry Nc1ccc(F)c(CN(CCN2CCCCCC2)C(=O)c2cc(C(F)(F)F)n[nH]2)c1 [Compound 214] has what log10 AC50?
2.18

Quick one: log10 AC50 of CC(C)OCCN(Cc1ccccc1Cl)C(=O)c1cc(C(F)(F)F)n[nH]1 [Compound 37] ?
4.62

Consider the compound shown here: CN(C)CCCN(Cc1ccccc1Cl)C(=O)c1cc(C(F)(F)F)n[nH]1 [Compound 186] What is its recorded log10 AC50?
2.57

Need log10 AC50 of CN1CCC(CCN(Cc2ccccc2Cl)C(=O)c2cc(C(F)(F)F)n[nH]2)CC1 [Compound 102] , thanks.
2.88

Item CS(=O)(=O)N1CCCC(CCN(Cc2ccccc2Cl)C(=O)c2cc(C(F)(F)F)n[nH]2)C1 (stereo not shown) [Compound 228] has what recorded log10 AC50?
3.30

Entry O=C(c1cc(C(F)(F)F)n[nH]1)N(Cc1cccc2[nH]c(=O)sc12)CC1CCC1 [Compound 7] has what log10 AC50?
3.54

What measured log10 AC50 goes with O=C(c1cc(C(F)(F)F)n[nH]1)N(CCC1CCS(=O)(=O)C1)Cc1cc(F)ccc1F (stereo not shown) [Compound 70] ?
2.95

// log10 AC50 lookup, key: Cc1ccc2nc(Cn3c(Cc4ccccc4)nc4ccccc43)cc(=O)n2c1 [PP1]
3.54

Query (compound): O=C(c1cc(Br)n[nH]1)N(Cc1ccc(O)cc1F)CC1CCC1 [Compound 245] ; field requested: log10 AC50
1.54

Any idea what log10 AC50 was measured for O=C(c1cc(C(F)(F)F)n[nH]1)N(CCC1CCS(=O)(=O)C1)Cc1cccnc1 (stereo not shown) [Compound 90] ?
4.72

What value of measured log10 AC50 is listed for O=C(c1cc(C(F)(F)F)n[nH]1)N(CCN1CCC(O)CC1)Cc1ccccc1Cl [Compound 219] ?
3.11

Recorded log10 AC50 for Cc1cccn2c(=O)cc(Cn3cnc4ccccc43)nc12 [PP13] , please?
2.16

# log10 AC50 lookup, item COc1c(N)cccc1CN(CCN1CCCCCC1)C(=O)c1cc(C(F)(F)F)n[nH]1 [Compound 217]
2.36

Could you tell me which log10 AC50 is on file for O=C(c1cc(Cl)n[nH]1)N(Cc1cccc2[nH]cnc12)CC1CCC1 [Compound 119] ?
3.47

# query: log10 AC50 of entry O=C(c1cc(C(F)(F)F)n[nH]1)N(CCN1CCCC1)Cc1cccc2nc[nH]c12 [Compound 163]
3.03

Which log10 AC50 value is on record for NCc1ccccc1CN(CC1CCC1)C(=O)c1cc(C(F)(F)F)n[nH]1 [Compound 145] ?
4.41

Which value of log10 AC50 has been reported for Cn1cc(C(=O)c2cccc(Cl)c2Cl)cc1C(=O)NCCNC(=O)c1cc(C(=O)c2cccc(Cl)c2Cl)cn1C [CA5] in the records?
1.15

Entry O=C(c1cc(Cl)n[nH]1)N(Cc1ccncc1F)CC1CCC1 [Compound 116] : reported log10 AC50 = ?
4.58

###

Target Or System: PKM2 (Homo sapiens, UniProt P14618)
Sequence (P14618 whole entry): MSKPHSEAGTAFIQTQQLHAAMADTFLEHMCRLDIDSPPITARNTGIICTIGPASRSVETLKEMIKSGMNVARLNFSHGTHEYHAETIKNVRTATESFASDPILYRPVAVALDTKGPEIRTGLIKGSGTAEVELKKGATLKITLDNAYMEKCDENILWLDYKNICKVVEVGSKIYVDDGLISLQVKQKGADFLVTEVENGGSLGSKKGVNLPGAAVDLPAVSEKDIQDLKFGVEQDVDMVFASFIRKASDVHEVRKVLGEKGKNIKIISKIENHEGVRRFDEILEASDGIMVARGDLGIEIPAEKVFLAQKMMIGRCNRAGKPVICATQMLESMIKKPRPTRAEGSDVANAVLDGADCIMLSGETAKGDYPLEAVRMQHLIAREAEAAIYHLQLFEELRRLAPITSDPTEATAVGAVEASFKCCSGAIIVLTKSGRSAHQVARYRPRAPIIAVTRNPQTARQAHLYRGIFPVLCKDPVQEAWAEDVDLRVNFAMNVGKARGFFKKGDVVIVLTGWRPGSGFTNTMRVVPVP
Experiment Notes: PKM2 activation biochemical assay (AC50 / max. response vs fructose 1,6-bisphosphate)
Condition Details: biochemical assay; read-out: PKM2 AC50
Metric Name: AC50 (nM)
Give your result in nM as a bare value.

Need AC50, item Nc1cccc(Cl)c1CN(CCN1CCCC(O)C1)C(=O)c1cc(C(F)(F)F)n[nH]1 (stereo not drawn) [Compound 225]
102

Give the measured AC50 of O=C(c1cc(C(F)(F)F)n[nH]1)N(CCC1CCOC1)Cc1ccc(O)cc1F (stereo not drawn) [Compound 34] .
77

Need AC50 of Cc1ccn2c(=O)cc(Cn3cnc4ccccc43)nc2c1 [PP9] , thanks.
216

Endpoint output: AC50 of Nc1cccc(Cl)c1CN(CCN1CCCC(F)CC1)C(=O)c1cc(C(F)(F)F)n[nH]1 (stereo not drawn) [Compound 243] . Value?
106

What value of measured AC50 is listed for O=C(c1cc(C(F)(F)F)n[nH]1)N(Cc1ccccc1Cl)CC1CCN1 (stereo not drawn) [Compound 227] ?
215

Suppose we examine the compound CCc1nn2c(=O)cc(Cn3cnc4ccccc43)nc2s1 [PP19] ; what AC50 value has been reported?
4760

I would be grateful if you could share the reported AC50 for COCCN(Cc1ccc(O)cc1F)C(=O)c1cc(C(F)(F)F)n[nH]1 [Compound 142] .
1190

Would you mind telling me what AC50 value was observed for O=C(c1cc(C(F)(F)F)n[nH]1)N(Cc1ccccc1Cl)CC1CCCN1 (stereo not drawn) [Compound 232] ?
320

# query: AC50 of entry CCN(CCN(Cc1ccccc1Cl)C(=O)c1cc(C(F)(F)F)n[nH]1)C(C)C [Compound 204]
880
